Recorded values, source BindingDB's records for doi:10.1073/pnas.71.5.1725.

pKi: −log10 of the molar value.
Can you tell me pKi for the items I'm about to list?

Fetch value of pKi on Muscarinic acetylcholine receptor M2 (Rattus norvegicus, UniProt P10980) for CN(C)CCC(c1ccc(Cl)cc1)c1ccccn1 (stereo not drawn) .
Sequence (P10980 whole entry): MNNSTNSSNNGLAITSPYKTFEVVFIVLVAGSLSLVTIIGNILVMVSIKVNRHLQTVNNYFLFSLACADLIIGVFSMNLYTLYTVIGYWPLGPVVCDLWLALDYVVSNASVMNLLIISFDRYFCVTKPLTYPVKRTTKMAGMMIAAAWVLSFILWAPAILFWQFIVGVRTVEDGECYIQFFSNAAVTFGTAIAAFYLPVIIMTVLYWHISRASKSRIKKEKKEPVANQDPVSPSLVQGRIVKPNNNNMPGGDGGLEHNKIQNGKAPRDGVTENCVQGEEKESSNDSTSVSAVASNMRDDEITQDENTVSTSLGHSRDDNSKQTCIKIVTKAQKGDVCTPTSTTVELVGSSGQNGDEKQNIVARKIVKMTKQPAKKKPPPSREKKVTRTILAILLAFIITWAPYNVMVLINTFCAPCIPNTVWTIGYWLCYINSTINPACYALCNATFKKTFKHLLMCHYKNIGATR
< 5.00

Under Muscarinic acetylcholine receptor M2 (Rattus norvegicus, UniProt P10980), report pKi for CN(C)CCC(c1ccc(Br)cc1)c1ccccn1 (stereo not drawn)
< 5.00

Name the recorded pKi of O=C(O)C=CC(=O)Oc1ccc(Cl)cc1 , assay system Muscarinic acetylcholine receptor M2 (Rattus norvegicus, UniProt P10980).
< 5.00
